# credit: PubChem BioAssay

Below is a list of entries, each paired with its recorded parasite % of control value.
Assay: liver-stage malaria parasite load reduction – cell-based, known kinase inhibitor set, luminescence, hepatoma host viability (AID 624392);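 note: infected cells incubated roughly two days before readout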
Settings: Plasmodium liver stage in hepatoma cells, luciferase luminescence, concentration not given here; stronger effect = lower value
Please reply with the bare figure in % and do not write the unit itself.

CS(=O)(=O)Nc1ccc(-c2ccc(C=C3SC(N)=NC3=O)o2)cc1
130
OCCCNc1nccc(-c2cc(Nc3cccc(Cl)c3)ncn2)n1
176
O=C1NN(c2ccccc2)C(=O)C1=Cc1ccc(-c2ccc(Cl)cc2)o1
92.2
CC(C)n1cnc2c(Nc3ccc(C(=O)O)cc3)nc(Cl)nc21
123
O=C1Cc2c([nH]c3ccc([N+](=O)[O-])cc23)-c2ccccc2N1
65.2
CCN1CCN(Cc2ccc(NC(=O)c3cc(NC(=O)N4CCNC4=O)cc(OC)c3)cc2C(F)(F)F)CC1
12.4
O=C(Nc1ccc(-c2csc(Nc3ccc(Cl)cc3)n2)cc1)c1cc([N+](=O)[O-])cc(C(F)(F)F)c1
97.2
CCN1CCN(Cc2ccc(NC(=O)c3cc(NC(=O)C4=NN(c5ccccc5)C(=O)C4)cc(OC)c3)cc2C(F)(F)F)CC1
110

Problem: Please give the measured parasite % of control for this molecule: `COC(=O)Nc1nc2ccc(Sc3ccc(NC(=O)Nc4cc(C(F)(F)F)ccc4F)cc3)cc2[nH]1`
Result: 195

Problem: Please give the measured parasite % of control for this molecule: `COc1cc(NC(=O)c2ccno2)cc(C(=O)Nc2cccc(C(F)(F)F)c2)c1`
Result: 70

---

System: Hepatitis C virus NS3 helicase
Experiment: blockers of NS3h binding to ssDNA – biochemical, fluorescence polarization, LOPAC1280 library, primary screen (AID 687035)
Settings: Purified HCV NS3 helicase, Cy5-dT15 ssDNA binding fluorescence polarization; stronger effect = higher value; concentration not given here
MEASURED_PARAMETER: inhibition (%)
Please reply with the bare figure in % and do not write the unit itself.

Record excerpt, results attached:
Cc1ccccc1/C=C/C1=NCCN1
-5
Cn1c(=O)c2[nH]c(-c3ccc(S(=O)(=O)O)cc3)nc2n(C)c1=O
0
CC(O)C(O)[C@H]1CNc2nc(N)[nH]c(=O)c2N1 (some centres undefined)
-4

Problem: Please give the measured inhibition for this compound: `[Li+]`
Result: -1

Problem: Please give the measured inhibition for this compound: `O=C(O)[C@@H]1C[C@H](C(=O)O)N1`
Result: -1

Problem: Please give the measured inhibition for this compound: CNc1ncnc2c1ncn2[C@@H]1O[C@H](CO)[C@H](O)C1O (some centres undefined)
Result: -2

Problem: Please give the measured inhibition for this compound: CCCCCC(O)c1cccc(OCc2ccc3ccccc3n2)c1 (centres undefined)
Result: 1

Problem: Please give the measured inhibition for this compound: `NC(N)=[N+]1CCc2ccccc2C1`
Result: -1

Problem: Please give the measured inhibition for this compound: CC1=C(C(=O)O)N2C(=O)[C@@H](NC(=O)C(N)C3=CCC=CC3)[C@H]2SC1 (some centres undefined)
Result: 0

Problem: Please give the measured inhibition for this compound: `Cc1cc(NC2CCCCC2)nc(-n2nc(C)cc2C)n1`
Result: -5

Problem: Please give the measured inhibition for this compound: `O=C1Nc2ccc(I)cc2C1=Cc1cc(Br)c(O)c(Br)c1`
Result: -1

Problem: Please give the measured inhibition for this compound: `N[C@@H](Cc1cnc[nH]1)C(=O)O`
Result: 0

Problem: Please give the measured inhibition for this compound: CCC1(O)CC2CN(CCc3c([nH]c4ccccc34)[C@@](C(=O)OC)(c3cc4c(cc3OC)N(C)C3[C@]45CCN4CC=C[C@@](CC)([C@@H](OC(C)=O)[C@]3(O)C(=O)OC)[C@H]45)C2)C1 (some centres undefined)
Result: -2

Problem: Please give the measured inhibition for this compound: `Ic1ccc(N2CCN(Cc3c[nH]c4ncccc34)CC2)cc1`
Result: 6

Problem: Please give the measured inhibition for this compound: `NC/C=C\C(=O)O`
Result: -3

Problem: Please give the measured inhibition for this compound: `COc1ccc(/C=C2\COc3ccc(C)cc3C2=O)cc1O`
Result: 1

Problem: Please give the measured inhibition for this compound: CCCCCCCCCCCCCCCCCCNC(=O)OCC(COP(=O)([O-])OCC[n+]1ccsc1)OC (centres undefined)
Result: 0

Problem: Please give the measured inhibition for this compound: NCC(O)C1CCCCCCC1 (centres undefined)
Result: -3

Problem: Please give the measured inhibition for this compound: `N#CC(=C(\N)Sc1ccccc1N)/C(C#N)=C(/N)Sc1ccccc1N`
Result: -1

Problem: Please give the measured inhibition for this compound: `Cc1cc2c(cc1Cl)N(C(=O)Nc1ccnc3ccccc13)CC2`
Result: -1

---

Test: viability loss with induced miR-34 in A549 – imaging, A549 dox-inducible miR-34, nuclei and caspase counts, primary screen (AID 1347080)
Conditions: A549 miR-34 inducible, Hoechst nuclei count, 48 h; measured here: relative caspase fold change +Dox/-Dox
MEASURED_PARAMETER: fold change

Record excerpt, results attached:
OCC1O[C@H]([S-])[C@@H](O)C(O)[C@@H]1O.[Au+] (stereo not given in full)
0.924
NC(=O)NC(Cc1ccccc1)C(=O)O (stereo not given)
0.725
O=C1CN(c2ncnc3nc[nH]c23)CCN1CCc1ccccc1
1.88
OCC1NCC(O)C(O)C1O (stereo not given)
1.34

Problem: Please give the measured fold change for this molecule: Cc1nsc(NC(=O)N2CCCC(C)(O)C2)n1 (stereo not given)
Result: 0.878

Problem: Please give the measured fold change for this molecule: `N#C/C(=C\c1ccc(O)c(O)c1)C(=O)NCCc1ccccc1`
Result: 0.996

Problem: Please give the measured fold change for this molecule: `CCNC(=O)c1noc(-c2cc(Cl)c(O)cc2O)c1-c1ccc(OC)cc1`
Result: 0.496

Problem: Please give the measured fold change for this molecule: `Cn1c(-c2ccc3c(c2)OCO3)cc(=O)c2ccccc21`
Result: 1.11

Problem: Please give the measured fold change for this molecule: CC1C(=O)O[C@H]2C(O)C34C5CC(C(C)(C)C)C36C(O)C(=O)O[C@H]6O[C@]4(C(=O)O5)[C@@]12O (stereo not given in full)
Result: 1.45

---

Below is a list of entries, each paired with its recorded z-score value.
Assay: MELAS cybrid and Rieske KO viability enhancers – cell-based, MELAS cybrids, Rieske KO mouse fibroblasts, CellTiter-Glo, primary screen (AID 1508586);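 note: z relative to plate mean and SD of compound and empty wells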
Conditions: MELAS cybrid survival, low glucose, CellTiter-Glo 48 h; stronger effect = higher value
Kindly provide the number alone.

Record excerpt, results attached:
CC(C)CN1CC(OCc2cccc(F)c2)CN(Cc2cccn2-c2ncccn2)CC1=O (stereo not given)
-0.291
CN1CCN(Cc2ccc(-c3nc(-c4cccnc4)cc(=O)[nH]3)cc2)CC1
-0.317

Problem: Please give the measured z-score for this molecule: `O=C(C=Cc1ccc(O)c(O)c1)NCCc1ccc(O)cc1`
Result: -0.586

Problem: Please give the measured z-score for this molecule: CC1(C)S[C@@H]2[C@H](NC(=O)COc3ccccc3)C(=O)N2C1C(=O)O (stereo not given in full) (tested in a mixture with another compound)
Result: -0.168

Problem: Please give the measured z-score for this molecule: `O=C(O)CCc1c[nH]c2ccccc12`
Result: 0.524

Problem: Please give the measured z-score for this molecule: `O=C(C=Cc1cccc(S(=O)(=O)Nc2ccccc2)c1)NO`
Result: 0.973

Problem: Please give the measured z-score for this molecule: `C#C[C@@]1(O)CC[C@H]2[C@@H]3CCc4cc(O)ccc4[C@@H]3CC[C@@]21C`
Result: 0.773

---

Test: drug combination growth inhibition, ovarian cancer – cell-based, oncology-focused library, rucaparib conditional, profiling panel (AID 1508598)
Settings: patient-derived ovarian cancer cells, CellTiter-Glo viability, 144 h; at 0.00122 µM; OCI-C5x cells; with rucaparib 10 µM; stronger effect = lower value; 100% = cells with rucaparib alone
*1 amine or outer side, *2 acyl side, *3 side chain or, on linkers, in order; H or OH if unused. Where a SMILES comes first, the peptide text is derived from it. Bridges are numbered along the chain shown (N, C = ends). Roman numbers before positions name the chains, in order. [ ]: non-standard residue; d: D form. Hexamethylenediamine = C(CCCN[*:2])CCN[*:1]; Dip = N[C@H](C(=O)O)C(c1ccccc1)c1ccccc1; Chg = N[C@H](C(=O)O)C1CCCCC1; NMeA = CN[C@@H](C)C(=O)O
MEASURED_PARAMETER: viability (%)
Please reply with the bare figure in % and do not write the unit itself.

CCC1=CC2CN(C1)Cc1c([nH]c3ccccc13)[C@@](C(=O)OC)(c1cc3c(cc1OC)N(C)[C@H]1[C@@](O)(C(=O)OC)[C@H](OC(C)=O)[C@]4(CC)C=CCN5CC[C@@]31[C@H]54)C2 (some centres not stated)
94.4
CC[C@]1(O)C[C@@H]2CN(CCc3c([nH]c4ccccc34)[C@@](C(=O)OC)(c3cc4c(cc3OC)N(C=O)[C@H]3[C@@](O)(C(=O)OC)[C@H](OC(C)=O)[C@]5(CC)C=CCN6CC[C@@]43[C@@H]65)C2)C1
106
C[C@@H]1C[C@H]2[C@@H]3CCC4=CC(=O)C=C[C@]4(C)[C@]3(F)[C@H](O)C[C@]2(C)[C@]1(O)C(=O)CO
117
COc1cccc(-c2cc(F)ccc2[C@H]2Cc3nc(N)nc(C)c3C(=O)N2)n1
117
CC(=O)O[C@]12CO[C@@H]1C[C@H](O)[C@]1(C)C(=O)[C@H](O)C3=C(C)[C@H](OC(=O)[C@H](O)[C@@H](NC(=O)OC(C)(C)C)c4ccccc4)C[C@](O)([C@H](OC(=O)c4ccccc4)C21)C3(C)C (some centres not stated)
86.4
C[C@@]1(c2nc3c(C(N)=O)cccc3[nH]2)CCCN1
114

Problem: Please give the measured viability for this compound: `c1ccc(Cn2c(-c3ccc(OC[C@H](C4CCNCC4)n4c(-c5ccccc5)nc5ccccc54)cc3)nc3ccccc32)cc1`
Result: 123

Problem: Please give the measured viability for this compound: `N[C@@H]1CCCN(c2c(/C=C3\SC(=O)NC3=O)cccc2-c2ccccc2)C1`
Result: 116

Problem: Please give the measured viability for this compound: `CN(CC(=O)N(Cc1ccc(C2CCCCC2)cc1)c1ccc(C(=O)O)cc1)S(=O)(=O)c1c(F)c(F)c(F)c(F)c1F`
Result: 115

Problem: Please give the measured viability for this compound: `CC1(C)C=C(CN2C/C(=C/c3ccc(F)cc3)C(=O)/C(=C/c3ccc(F)cc3)C2)C(C)(C)N1O`
Result: 117

Problem: Please give the measured viability for this compound: `Cc1cc(C)c(-c2csc(NC(=O)c3ccccc3)n2)c(C)c1`
Result: 113

Problem: Please give the measured viability for this compound: CN[C@@H](C)C(=O)N[C@H](C(=O)N1CCC[C@H]1C(=O)N[C@H](C(=O)NCCCCCCNC(=O)[C@@H](NC(=O)[C@@H]1CCCN1C(=O)[C@@H](NC(=O)[C@H](C)NC)C1CCCCC1)C(c1ccccc1)c1ccccc1)C(c1ccccc1)c1ccccc1)C1CCCCC1 (I: H-[NMeA][Chg]P[Dip] / II: H-[NMeA][Chg]P[Dip]; linker I:C-II:C via Hexamethylenediamine)
Result: 119
